B1: CLCN6 (parent)
chain: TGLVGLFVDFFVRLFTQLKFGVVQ

- Variants of: B1
- experimental details: protein stability index of a GFP-peptide fusion (GPS, HEK-293T) (PSI 1-6); higher = more stable;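 note: lentivirally expressed fusions sorted by FACS into six bins by GFP to DsRed ratio, PSI derived from sequencing read proportions per bin multiplied by bin number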
- setup conditions: c terminus: a fixed tail appended
// values below are reported protein stability index

variant annotation	protein stability index
K19N	2.21
T1F	2.1
Q17G	1.77
F15S	2.76
L18F	2.46
G2S	1.96
T1W	1.73
L14F	2.57
V8N	2.27
V4C	2.36
G5C	2.42
L3W	3.37
F20G	2.89
F11P	2.07
V8P	1.7
F20C	3.79
G5P	2.71
F10N	2.32
L6S	2.99
V12L	1.95
K19P	1.91
V12F	2.1
F10H	1.61
V12N	1.56
L6H	3.06
L14Q	1.55
F7H	2.44
Q17T	2.12
F11K	3.06
F7M	2.56
K19M	3.13
L18A	1.97
F10E	2.19
V23I	2.23
T16C	1.99
V4A	1.97
L3S	2.05
L18H	3.39
G2N	1.84
F20W	2.63
L18M	2.48
V8S	1.76
R13S	1.84
L14N	1.83
F11E	2.4
F15P	2.86
F10M	1.81
F20E	3.61
Q24P	1.88
L6N	2.76
V23K	2.45
G5F	1.72
V8H	2.77
V12W	2.95
F10L	1.77
L6F	2.4
L6M	2.93
F20I	2.97
V23F	2.98
V12A	2.11
Q17V	2.14
V22G	1.72
K19R	2.17
F15I	3.25
L6Y	3.19
G21H	3.06
L18N	3.66
D9N	2.87
Q17D	1.81
L3R	2.52
Q17Y	2.06
K19H	3.23
F11V	2.65
G2Q	1.73
